- measurement-parameters: water, 25 °C
measured-property: solubility

QUERY: Fill blank: measured solubility of the compound Cl.NCC(=O)NCC(=O)OCN1C(=O)CCC(N2C(=O)c3ccccc3C2=O)C1=O (stereo not shown) is ____.
RESULT: > 300 mg/mL

QUERY: Then this compound: CNC(C)C(=O)OCN1C(=O)CCC(N2C(=O)c3ccccc3C2=O)C1=O.Cl (stereo not shown)
RESULT: > 300 mg/mL

QUERY: Please give the result for CC(C)C(N)C(=O)OCN1C(=O)CCC(N2C(=O)c3ccccc3C2=O)C1=O.Cl (stereo not shown) too.
RESULT: > 300 mg/mL

QUERY: Query Cl.NCC(=O)OCN1C(=O)CCC(N2C(=O)c3ccccc3C2=O)C1=O (stereo not shown) next
RESULT: 497 mg/mL
